- EXPERIMENTAL_SYSTEM: T1, Anti-PSMA Fab (SEQ ID NOs: 19, 20)
- T1 construct: In the phage ELISA the Fab was biotinylated and captured on neutravidin coated plates; also called 006 PSMA Fab
- METHOD: phage binding ELISA on captured anti-PSMA Fab; competitor: PSMA antigen
Where no end group is shown, it is not given here.
QUANTITY_MEASURED: Anti-PSMA Fab signal in the presence of PSMA

INSERT INTO results (binder, reading) VALUES
  ('VEKMCRPAWMCWVM [Phage-1824]', 0.214),
  ('MDNWCTPEWMCLGF [Phage-1828]', 0.065),
  ('TEIRCTPQWMCLGF [Phage-1823]', 0.0871),
  ('WENWCQPAWMCTGL [Phage-1826]', 0.0691),
  ('IVKRCEPMWMCAGF (cysteine pairing not given here; also: displayed on phage as pIII fusion, pIII sequence and linker not given here) [Phage-1821]', 0.264),
  ('MVKWCTPAWMCEML [Phage-1820]', 0.113);
